Dear all, this message contains IC50 results, target or system Chk2 kinase (Homo sapiens (Human)).

Below are worked cases with known answers.
COMPOUND | IC50
CC1(C)Cc2c(-c3cccc(-c4cnc(N)c(C(=O)N[C@@H]5CNCC[C@H]5O)n4)c3)cnn2C1 [Example 52] | 10 to 100 nM
CC1(C)Cc2c(-c3cc(-c4cnc(N)c(C(=O)N[C@H]5CCC6(CC6)NC5)n4)ccn3)cnn2C1 [Example 50] | ≤ 10 nM
N#CCn1cc(-c2cccc(-c3cnc(N)c(C(=O)N[C@H]4CCCNC4)n3)c2)cn1 [Example 27] | 10 to 100 nM
Nc1ncc(-c2cc(-c3cnn(CC(F)(F)F)c3)ccc2F)nc1C(=O)N[C@H]1CCC2(CC2)NC1 [Example 8] | 10 to 100 nM
CC1(C)Cc2c(-c3ccc(F)c(-c4cnc(N)c(C(=O)N[C@@H]5CNC[C@@H](F)C5)n4)c3)cnn2C1 [Example 44] | 10 to 100 nM

Input line: IC50 of CC1(C)Cc2c(-c3cc(-c4cnc(N)c(C(=O)N[C@@H]5CNCC[C@H]5O)n4)ccn3)cnn2C1 [Example 53] on Chk2 kinase (Homo sapiens (Human))?
Output line: 10 to 100 nM

Input line: IC50 of CC1(C)Cc2c(-c3ccc(O)c(-c4cnc(N)c(C(=O)N[C@@H]5CNC[C@@H](F)C5)n4)c3)cnn2C1 [Example 55] on Chk2 kinase (Homo sapiens (Human))?
Output line: ≤ 10 nM

Input line: IC50 of CC(C)(O)Cn1cc(-c2cc(-c3cnc(N)c(C(=O)N[C@@H]4CNCC(F)(F)C4)n3)c(F)cn2)cn1 [Example 32] on Chk2 kinase (Homo sapiens (Human))?
Output line: > 1000 nM

----------
ASSAY REMARKS: Pharmacokinetics test using mice
Format: in vivo
TEST SETTINGS: male, Balb/C, mouse, plasma, PO (10 mg/kg)
PROPERTY NAME: Tmax (min)
# number only, unit min dropped from output

Input line: For the compound shown here, Nc1ncc(-c2cc(-c3cnn(CC(F)(F)F)c3)ccc2F)nc1C(=O)N[C@@H]1CNC[C@@H](F)C1 , give the reported Tmax.
Output line: 30

----------
Dear all, this message contains pIC50 results, target or system Chk2 kinase (Homo sapiens (Human), UniProt O96017).
pIC50: −log10 of the molar value.

Below are worked cases with known answers.
MOLECULE | EXPERIMENTAL VALUE
Nc1ncc(-c2cc(-c3cnn(CC(F)(F)F)c3)ncc2F)nc1C(=O)N[C@@H]1CNC[C@@H](F)C1 | 7.00 to 8.00
CC(C)(O)Cn1cc(-c2cc(-c3cnc(N)c(C(=O)N[C@H]4CCC5(CC5)NC4)n3)ccn2)cn1 | ≥ 8.00
Cn1cc(-c2ccc(F)c(-c3cnc(N)c(C(=O)N[C@H]4CCCNC4)n3)c2)cn1 | 7.00 to 8.00
CC1(C)Cc2c(-c3cccc(-c4cnc(N)c(C(=O)N[C@@H]5CNCC(F)(F)C5)n4)c3)cnn2C1 | 7.00 to 8.00
CC1(C)Cc2c(-c3cc(-c4cnc(N)c(C(=O)N[C@H]5CCCNC5)n4)ccn3)cnn2C1 | ≥ 8.00

Input line: For the molecule shown here, CC1(C)Cc2c(-c3cccc(-c4cnc(N)c(C(=O)N[C@@H]5CNCCOC5)n4)c3)cnn2C1 (stereo in doubt) , give the reported pIC50.
Output line: ≥ 8.00

Input line: For the molecule shown here, CC1(C)Cc2c(-c3ccc(F)c(-c4cnc(N)c(C(=O)N[C@H]5CCCNC5)n4)c3)cnn2C1 , give the reported pIC50.
Output line: ≥ 8.00

----------
Dear all, this message contains pIC50 results, target or system UniProt O96017.
pIC50: −log10 of the molar value.

Below are worked cases with known answers.
SMILES REPR | EXPERIMENTAL VALUE
CC1(C)Cc2c(-c3cccc(-c4cnc(N)c(C(=O)N[C@@H]5CNC[C@@H](F)C5)n4)c3)cnn2C1 | ≥ 8.00
CC1(C)Cc2c(-c3cccc(-c4cnc(N)c(C(=O)N[C@H]5CCCNC5)n4)c3)cnn2C1 | ≥ 8.00
Nc1ncc(-c2ccnc(-c3cnn(CC(F)(F)F)c3)c2)nc1C(=O)N[C@@H]1CNCC(F)(F)C1 | 6.00 to 7.00

Input line: For the compound shown here, CC(C)(O)Cn1cc(-c2cc(-c3cnc(N)c(C(=O)N[C@@H]4CNC[C@@H](F)C4)n3)c(F)cn2)cn1 , give the reported pIC50.
Output line: < 6.00

Input line: For the compound shown here, CC1(C)Cc2c(-c3cccc(-c4cnc(N)c(C(=O)N[C@H]5CNC[C@@H]5F)n4)c3)cnn2C1 , give the reported pIC50.
Output line: 7.00 to 8.00

Input line: For the compound shown here, CC1(C)Cc2c(-c3cc(-c4cnc(N)c(C(=O)N[C@@H]5CNC[C@@H](F)C5)n4)ccn3)cnn2C1 , give the reported pIC50.
Output line: ≥ 8.00

Input line: For the compound shown here, Nc1ncc(-c2cc(-c3cnn(CC(F)(F)F)c3)ncc2F)nc1C(=O)N[C@@H]1CNCC[C@H]1O , give the reported pIC50.
Output line: ≥ 8.00

The measured values listed here are drawn from patent US20250188059A1.
